# TARGET SYSTEM: Fuc(a1-2)Gal(b1-3)[Fuc(a1-4)]GlcNAc(b1-2)Man(a1-3)[Fuc(a1-2)Gal(b1-3)[Fuc(a1-4)]GlcNAc(b1-2)Man(a1-6)]Man(b1-4)GlcNAc(b1-4)[Fuc(a1-6)]GlcNAc(b1-4)[Fuc(a1-6)]GlcNAc
# ASSAY REMARKS: glycan array binding signal (z-score within array); higher = stronger binding
# CONDITIONS: glycan notation: IUPAC condensed, linker removed
The full list was thinned out, with the strongest signals kept by preference.
Give yes when the value for glycan array binding signal (z-score) is at least 0.1. Give no when it is less.

Before answering, review these 7 worked examples.
>>> class("UEA-I (Ulex europaeus), P22972 (protein) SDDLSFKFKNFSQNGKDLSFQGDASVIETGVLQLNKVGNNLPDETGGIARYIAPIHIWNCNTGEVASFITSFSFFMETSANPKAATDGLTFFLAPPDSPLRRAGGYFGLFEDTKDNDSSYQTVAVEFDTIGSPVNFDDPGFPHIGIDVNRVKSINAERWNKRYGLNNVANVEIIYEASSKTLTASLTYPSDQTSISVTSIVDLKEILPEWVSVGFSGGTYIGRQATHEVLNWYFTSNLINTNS")
"no"
>>> class("YASPKCFRYPNGVLACT [Odorranalectin (Odorrana grahami), B3TFE9_RANGR]")
"yes"
>>> class("XTP3-B-MRH1 (Homo sapiens), Q96DZ1 (protein) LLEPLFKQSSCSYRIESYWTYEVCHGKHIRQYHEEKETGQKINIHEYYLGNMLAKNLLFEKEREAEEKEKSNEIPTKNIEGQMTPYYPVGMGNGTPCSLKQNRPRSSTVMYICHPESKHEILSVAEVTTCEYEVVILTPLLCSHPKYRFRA")
"yes"
>>> class("SJA (Sophora japonica) (protein) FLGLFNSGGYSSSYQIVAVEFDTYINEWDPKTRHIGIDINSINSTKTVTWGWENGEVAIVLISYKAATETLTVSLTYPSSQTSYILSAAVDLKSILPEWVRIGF")
"no"
>>> class("OS9-MRH (Homo sapiens), Q13438 (protein) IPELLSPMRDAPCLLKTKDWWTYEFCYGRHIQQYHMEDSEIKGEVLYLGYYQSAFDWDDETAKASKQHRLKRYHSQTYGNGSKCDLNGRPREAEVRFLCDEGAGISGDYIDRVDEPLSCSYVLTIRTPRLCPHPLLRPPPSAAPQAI")
"yes"
>>> class("EUL D1A second (Oryza sativa) (protein) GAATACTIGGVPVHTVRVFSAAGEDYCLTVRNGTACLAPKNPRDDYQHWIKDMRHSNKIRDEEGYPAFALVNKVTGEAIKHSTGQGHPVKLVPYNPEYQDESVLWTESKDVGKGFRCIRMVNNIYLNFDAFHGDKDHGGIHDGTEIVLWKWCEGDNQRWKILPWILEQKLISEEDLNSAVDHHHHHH")
"no"
>>> class("Gal 2 (Homo sapiens), P05162 (protein) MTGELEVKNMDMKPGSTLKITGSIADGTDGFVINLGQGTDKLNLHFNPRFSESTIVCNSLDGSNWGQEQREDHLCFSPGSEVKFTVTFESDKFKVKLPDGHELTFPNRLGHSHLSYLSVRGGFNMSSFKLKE")
"yes"

(Q) // inclusive: glycan array binding signal (z-score) at least 0.1? input: OrysaEULS2 (Oryza sativa) (protein) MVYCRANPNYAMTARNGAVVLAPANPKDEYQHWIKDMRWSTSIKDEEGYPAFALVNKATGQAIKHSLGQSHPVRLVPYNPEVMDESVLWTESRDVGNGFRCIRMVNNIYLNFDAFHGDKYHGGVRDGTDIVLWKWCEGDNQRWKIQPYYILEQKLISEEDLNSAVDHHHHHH
(A) no
